Reported EC50 (nM), cAMP cell-based agonist assay values for the following binders.
Molecular target: T1, Human GIP receptor (human, UniProt P48546)
T1 sequence: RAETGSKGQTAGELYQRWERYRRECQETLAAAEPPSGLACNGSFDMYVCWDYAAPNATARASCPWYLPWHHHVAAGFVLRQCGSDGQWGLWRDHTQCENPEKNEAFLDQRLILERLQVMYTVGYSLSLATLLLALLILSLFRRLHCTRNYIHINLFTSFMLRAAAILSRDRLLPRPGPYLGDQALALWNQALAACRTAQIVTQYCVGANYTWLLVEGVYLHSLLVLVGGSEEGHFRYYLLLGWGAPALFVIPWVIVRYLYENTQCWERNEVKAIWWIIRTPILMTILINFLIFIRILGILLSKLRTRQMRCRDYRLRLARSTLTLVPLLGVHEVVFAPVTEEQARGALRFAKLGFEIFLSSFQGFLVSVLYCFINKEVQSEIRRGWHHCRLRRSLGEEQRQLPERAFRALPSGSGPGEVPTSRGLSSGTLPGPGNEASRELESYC
Assay: cell-based or functional assay
Starred links: 1 amine or outer side, 2 acyl side, 3 side chain; linkers in the order of their positions; H or OH if unused. Non-standard residues stand in square brackets, D forms with d. Groups on a side chain read outwards from the residue. γGlu = O=C(O)[C@H](CCC(=O)[*:2])N[*:1]; C(:O)(CH2)nR3 = not defined here
Observable: EC50 (nM), cAMP cell-based agonist assay

Peptide No. 21 (reading uncertain; also: K* n and R3 not given here, acetate salt) peptide: [dY]AEGTFTSDYSIQLDKIAQQAFVQWLLAGSGCNTATCVLGRLSQELHRLQTYPRTNTGK([γGlu-γGlu-C(:O)(CH2)nR3])NTY-NH2
20 nM
Peptide No. 22 (reading uncertain; also: K* n and R3 not given here, acetate salt) peptide: [dY]AEGTFTSDYSIQLDKIAQQAFVQWLLAGSGCNTATCATQRLANFLVHSSNNFGPILPPTNVGK([γGlu-γGlu-C(:O)(CH2)nR3])NTY-NH2
16 nM
Peptide No. 19 (reading uncertain; also: K* n and R3 not given here, acetate salt) peptide: [dY]AEGTFTSDYSIQLDKIAQQAFVQWLLAGGPSCNTATCVLGRLSQELHRLQTYPRTNTGK([γGlu-γGlu-C(:O)(CH2)nR3])NTY-NH2
4.6 nM
